Test system: OVCAR-4
Assay text: NCI tumour cell line growth inhibition, 48 h
Calls of active or inactive are those of the source. No stated cut-off is given here; in the data, active = GI50 up to about 1.1 µM and inactive = higher.

Molecule	GI50
C[C@]12CC[C@H](O)CC1=CC[C@@H]1C2CC[C@]2(C)c3n[nH]nc3CC12 (stereo not given in full)	> 100 µM (inactive)
CN(C)C1(N(C)C)Oc2c(c(=O)n(C)c(=O)n2C)C(c2ccccc2Br)C1(F)F (stereo not given)	> 100 µM (inactive)
Cc1c(Cl)ccc2c1NC(=O)C2(O)CC(=O)c1ccc(Cl)cc1 (stereo not given)	43.7 µM (inactive)
COC12CCC(=O)C=C1c1ccccc1N2C(C)=O (stereo not given)	> 100 µM (inactive)
Cc1ccc(NC(=O)CC(=O)N2N=C(N(CCC#N)c3cccc(C)c3)CC2c2ccccc2)cc1 (stereo not given)	> 100 µM (inactive)
O=C(NCCc1ccccc1)c1cc(/C=C/c2cc(O)ccc2O)ccc1O	2.27 µM (inactive)
COc1ccc(N/N=C(\CCN(C)C)c2ccccc2)cc1	4.67 µM (inactive)
CC(C)=C1C(=O)C[C@]2(C)C[C@H]3O[C@]3(C)CC[C@@H]3O[C@@]3(C)CC[C@@H]12	> 50 µM (inactive)
CC(=O)c1c(C)cn(S(=O)(=O)NC(=O)Nc2nncs2)c1C	> 100 µM (inactive)
C=C[C@]1(C)CCC2=C(CCC3C2(C)CCC[C@@]3(C)COC(C)=O)C1 (stereo not given in full)	19.7 µM (inactive)
